Target: UniProt O14746
Sequence (O14746 whole entry): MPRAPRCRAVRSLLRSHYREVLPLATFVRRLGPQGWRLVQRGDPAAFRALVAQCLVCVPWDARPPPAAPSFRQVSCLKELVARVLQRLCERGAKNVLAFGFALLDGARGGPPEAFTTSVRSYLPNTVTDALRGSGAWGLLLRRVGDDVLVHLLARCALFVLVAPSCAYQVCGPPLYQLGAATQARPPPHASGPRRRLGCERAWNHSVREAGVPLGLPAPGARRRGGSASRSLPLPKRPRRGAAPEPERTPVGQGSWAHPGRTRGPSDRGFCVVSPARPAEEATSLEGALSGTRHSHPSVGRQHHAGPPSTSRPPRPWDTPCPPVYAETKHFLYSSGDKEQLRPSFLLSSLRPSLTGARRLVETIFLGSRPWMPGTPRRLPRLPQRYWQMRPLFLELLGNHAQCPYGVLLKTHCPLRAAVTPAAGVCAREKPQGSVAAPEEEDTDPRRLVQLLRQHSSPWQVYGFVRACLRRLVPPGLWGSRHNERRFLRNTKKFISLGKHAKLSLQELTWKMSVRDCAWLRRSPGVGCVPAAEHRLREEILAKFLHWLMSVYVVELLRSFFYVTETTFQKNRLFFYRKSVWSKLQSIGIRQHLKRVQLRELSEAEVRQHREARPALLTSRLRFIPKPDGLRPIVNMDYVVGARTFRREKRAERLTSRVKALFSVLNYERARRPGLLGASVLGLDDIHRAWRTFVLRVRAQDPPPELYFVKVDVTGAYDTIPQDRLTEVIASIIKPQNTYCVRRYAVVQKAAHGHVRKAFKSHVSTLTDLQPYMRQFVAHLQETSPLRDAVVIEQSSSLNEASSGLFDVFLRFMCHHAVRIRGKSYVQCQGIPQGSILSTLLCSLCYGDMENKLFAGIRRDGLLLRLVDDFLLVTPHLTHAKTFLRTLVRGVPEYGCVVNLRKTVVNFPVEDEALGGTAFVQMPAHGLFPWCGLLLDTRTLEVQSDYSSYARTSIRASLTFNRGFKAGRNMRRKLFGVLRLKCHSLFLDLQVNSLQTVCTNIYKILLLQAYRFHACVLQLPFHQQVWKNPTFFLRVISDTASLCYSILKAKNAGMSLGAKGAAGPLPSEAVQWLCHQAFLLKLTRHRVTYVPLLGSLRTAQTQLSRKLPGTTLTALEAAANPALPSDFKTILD
Test: Inhibition of telomerase in human SGC7901 cells by TRAP assay
Lab note - cut at 50 µM for IC50: 1 (yes) if strictly below, 0 (no) if not.

Record excerpt, results attached:
compound	classification
COc1ccc(C2=NN(C(C)=O)C(c3ccc4c(c3)OCCCO4)C2)cc1 (stereo unspecified)	1 (yes)
CC(=O)N1N=C(c2ccc([N+](=O)[O-])cc2)CC1c1ccc2c(c1)OCCCO2 (stereo unspecified)	0 (no)
COc1ccc(C2=NN(C(C)=O)C(c3ccc4c(c3)OCO4)C2)cc1 (stereo unspecified)	1 (yes)
CC(=O)N1N=C(c2ccc(Cl)cc2)CC1c1ccc2c(c1)OCO2 (stereo unspecified)	1 (yes)
CC(=O)N1N=C(c2ccc(C)cc2)CC1c1ccc2c(c1)OCCCO2 (stereo unspecified)	0 (no)

# input Dear reviewer, please state whether COc1ccc(C2=NN(C(C)=O)C(c3ccc4c(c3)OCCO4)C2)cc1 (stereo unspecified) has IC50 strictly beneath 50 µM.
# output 1 (yes)

# input Dear reviewer, please state whether CC(=O)N1N=C(c2ccc(C)cc2)CC1c1ccc2c(c1)OCCO2 (stereo unspecified) has IC50 strictly beneath 50 µM.
# output 1 (yes)

# input Dear reviewer, please state whether CC(=O)N1N=C(c2ccc(C)cc2)CC1c1ccc2c(c1)OCO2 (stereo unspecified) has IC50 strictly beneath 50 µM.
# output 1 (yes)

# input Dear reviewer, please state whether CC(=O)N1N=C(c2ccc(Br)cc2)CC1c1ccc2c(c1)OCO2 (stereo unspecified) has IC50 strictly beneath 50 µM.
# output 1 (yes)

# input Dear reviewer, please state whether CC(=O)N1N=C(c2ccccc2)CC1c1ccc2c(c1)OCCO2 (stereo unspecified) has IC50 strictly beneath 50 µM.
# output 1 (yes)

# input Dear reviewer, please state whether CC(=O)N1N=C(c2ccccc2)CC1c1ccc2c(c1)OCCCO2 (stereo unspecified) has IC50 strictly beneath 50 µM.
# output 0 (no)

Attribution: ChEMBL document CHEMBL2331218
